src = paper PMC12040169

procedure-text: in vitro
experimental-context: human, hela cells, % viability
Listing of recorded viability at 28.5 h, 10 µM by entry.
test-readout: viability at 28.5 h, 10 µM (%)

INSERT INTO assay_data (compound, test_readout, value) VALUES
  ('O=C(NC(=S)Nc1ccc(C(=O)O)c(Cl)c1)c1ccc(-c2ccc(Cl)cc2)o1', 'viability at 28.5 h, 10 µM', 105),
  ('COc1cccc(CN2CCc3cc(OC)c(OC)cc3C2)c1', 'viability at 28.5 h, 10 µM', 102),
  ('C[C@]12CN(C(=O)c3ccccc3)C[C@H]1NC(=O)c1ccccc1C2=O', 'viability at 28.5 h, 10 µM', 102),
  ('CCOc1ccc2[nH]c(C(=O)N(C)CCN3CCCCC3)c(C)c2c1', 'viability at 28.5 h, 10 µM', 86.3),
  ('O=C(c1ccccc1)N1CCCC(c2cccc(Cc3ccc(Cl)cc3)n2)C1 (centres unmarked)', 'viability at 28.5 h, 10 µM', 99.5);

---

procedure-text: in vitro
Design: Viability of infected HeLa host cells, resazurin conversion, bulk resorufin fluorescence relative to DMSO
experimental-context: human, hela cells; bulk resorufin, mean of 2
test-readout: viability at 28.5 h, 5 µM (%)

INSERT INTO assay_data (compound, test_readout, value) VALUES
  ('Cc1cc(C)nc(NC(=N)NCCc2c[nH]c3ccccc23)n1', 'viability at 28.5 h, 5 µM', 98.8),
  ('COc1ccc(Br)cc1C1CC(=O)Nc2c(-c3cccc(F)c3)csc21 (centres unmarked)', 'viability at 28.5 h, 5 µM', 96.5),
  ('COc1cc2c(cc1CNC(=O)c1cn(CCN)nn1)CCC2', 'viability at 28.5 h, 5 µM', 96.7),
  ('Cc1cc(C)nc(NS(=O)(=O)c2ccc(Nc3ccc4nonc4c3[N+](=O)[O-])cc2)n1', 'viability at 28.5 h, 5 µM', 86.4),
  ('CC(C)(CN)CN(Cc1ccc(-c2ccccc2)cc1)C(=O)Nc1ccccc1C(C)(C)C [CBK002476C]', 'viability at 28.5 h, 5 µM', 114);

---

Reported activity at 1 µM values for the following compounds.
Test system: CTL2-GFP (C. trachomatis L2/434/Bu, GFP-expressing)
Construct: L2/434/Bu, GFP-expressing
procedure-text: microbe, parasite or virus in culture
Parameters: Intracellular C. trachomatis growth in HeLa cells, bulk GFP fluorescence relative to DMSO
experimental-context: Chlamydia trachomatis, HeLa, 28.5 h; bulk GFP, mean of 2; read-out: % of control remaining
test-readout: activity at 1 µM

INSERT INTO assay_data (compound, value) VALUES
  ('O=C(NCC1CC1)c1ccc(N2CCN(C(=O)c3ccccc3C(F)(F)F)CC2)nn1', '149%'),
  ('CCN(CC)CCNc1nc(-c2cccc(Cl)c2)nc2ccccc12 [CBK267265C]', '108%'),
  ('O=C(O)/C(=N\c1cccc2ccccc12)c1ccccc1', '80.4%'),
  ('CN(C)c1ncc(-c2cccc(Cl)c2)c(C2CCCN2C(=O)CC2CCCC2)n1 (stereo not drawn)', '135%'),
  ('O=c1c2cnc3ccnn3c2ccn1C1CCCC1', '109%'),
  ('CC(Oc1cccc2ccccc12)C(=S)N(C)c1ccccc1 (stereo not drawn)', '98.8%'),
  ('CCn1c2c(c3cc(S(=O)(=O)c4ccc(C(F)(F)F)cc4)ccc31)CCNCC2 [CBK018453C]', '143%'),
  ('CCCN(CCC)CCc1cccc2c1CCN2C(=O)c1cc2ccccc2s1 [CBK017871C]', '42.3%'),
  ('CC(Nc1cccc2ccccc12)C(=O)N/N=C/c1c(O)ccc2ccccc12 (stereo not drawn)', '132%');

---

Catalogue of viability at 28.5 h, 10 µM readings, one per entry.
procedure-text: in vitro
experimental-context: human, hela cells, % viability
test-readout: viability at 28.5 h, 10 µM (%)

INSERT INTO assay_data (compound, value) VALUES
  ('Cc1cccc(Nc2nc3nonc3[nH]/c2=N\N=C/c2cn(Cc3ccc(Cl)cc3Cl)c3ccccc23)c1C', 93.3),
  ('COc1cccc(C2(NC(=O)c3cnsc3)CCCC2)c1', 94.9),
  ('O=C(CSc1nnc(-c2ccncc2)n1-c1ccccc1)Nc1ccc([N+](=O)[O-])cc1', 96.3),
  ('c1ccc(-c2noc(CN3CCN(C(c4ccccc4)c4ccccc4)CC3)n2)cc1', 101),
  ('CC(C)(C)C1CCc2c(sc(NC(=O)CCC(=O)O)c2C(=O)Nc2ccccc2C(F)(F)F)C1 (centres unmarked)', 100),
  ('Cc1ccc(C)c(OCC(=O)Nc2ccccc2C(=O)N2CCN(C)CC2)c1', 91.1),
  ('CC(C)CN1C(=S)N(Cc2ccc(-c3ccccn3)cc2)[C@H]2[C@H]3OC(=O)[C@H](C[C@H]3O)[C@H]21', 113),
  ('Nc1ncc(-c2ccncc2)nc1NCCCN1CCOCC1', 98.9),
  ('Cc1nn(-c2ccccc2)c2c1C(C(=O)c1ccc3c(c1)OCO3)CC(=O)N2 (centres unmarked)', 86.1),
  ('COCC(=O)N[C@H]1CC(C)(C)[C@@H]2C[C@@](C)(O)CC[C@]12CCC(=O)N1CCCC1', 88.4),
  ('O=C(CSc1ncnc2sc3c(c12)CCC3)Nc1nsc(-c2ccc(Cl)cc2)n1', 118),
  ('O=C(Cc1cccc(F)c1)N1CCC(c2cc3ncccc3[nH]2)CC1', 100),
  ('COc1ccc(C(=O)N[C@H]2C[C@@H]3C(=O)N[C@H]4CCN(C(=O)C5CCC5)[C@@H]4C(=O)N3C2)cc1', 89.3),
  ('O=C(Nc1ccccc1)c1ccccc1OCc1ccc(S(=O)(=O)N2CCOCC2)cc1', 92.8),
  ('CN(CCN1CCCCC1)C(=O)c1c2c(nn1C)CCCC2', 102),
  ('O=C(Nc1ccc(NC(=O)c2cc3ccccc3o2)cc1)c1ccc(-c2cccc([N+](=O)[O-])c2)o1', 86.8),
  ('COc1cc(OC)c(NC(=O)c2c(-c3ccccc3)noc2C)cc1Cl', 101);

---

Entries annotated with measured viability at 28.5 h, 10 µM
procedure-text: in vitro
experimental-context: human, hela cells, % viability
test-readout: viability at 28.5 h, 10 µM (%)

INSERT INTO measurements (molecule, value) VALUES
  ('O=C(Nc1ccc(Cl)c(Cl)c1)c1cnc2n(c1=O)CCS2', 108),
  ('CC1(Cc2ccn[nH]2)SCCCS1 [CBK019308C]', 109),
  ('CN(C)Cc1c(O)ccc2occ(C(=O)c3ccccc3)c12', 94),
  ('O=[N+]([O-])c1ccc(S(=O)(=O)CC(CN2CCCCC2)N2CCCCC2)cc1 (centres unmarked)', 100),
  ('CN(C)S(=O)(=O)N(CC(=O)NCc1ccncc1)c1ccccc1', 111),
  ('CS(=O)(=O)Nc1nn(-c2ccc(NC(=O)c3ccno3)cc2)c2ccccc12', 99.5),
  ('O=C1Cc2ccccc2C2(CCN(C(=O)Nc3c(F)cccc3F)CC2)N1', 89),
  ('Nc1cccc(-c2nc(-c3cccs3)cnc2N)c1', 94.5),
  ('Cn1nc(-c2cccs2)cc1[C@H]1CN2CC[C@H]1C[C@@H]2CNS(C)(=O)=O', 93.5),
  ('S=C(NCC1CCCCC1)Nc1ncc(Cl)cc1Cl', 91),
  ('CC(=O)c1sc(=S)n(N(C)C)c1C', 91.6),
  ('CC(=O)Nc1ccc(NCc2nc(C(C)C)no2)c(C(F)(F)F)c1', 101),
  ('CCN(CC)CCn1c(NC(=O)CCC2CCNC2)nc2ccccc21 (centres unmarked)', 92.3),
  ('CS(=O)(=O)Nc1cc(-c2noc([C@@H]3CCCN3Cc3ccncc3)n2)ccn1', 83.5),
  ('CC1CCN(Cc2c(-c3cccnc3)[nH]c3cccnc23)CC1', 98.8),
  ('Oc1cc2cccnc2nc1-c1cccc(C(F)(F)F)c1', 79),
  ('COC(=O)C1(Cc2ccccc2)CN(C(=O)OC(C)(C)C)CCC1=O (centres unmarked)', 93.2),
  ('O=C(O)COc1ccc(NC(=O)Cc2ccc([N+](=O)[O-])cc2)cc1', 104),
  ('Cc1cc(C)cc(OC(C)C(=O)N2CCCc3c(cnn3C)C2)c1 (centres unmarked)', 82.1),
  ('Cc1nc2sccn2c1CN1CCc2sccc2C1C (centres unmarked)', 92.4);

---

viability at 28.5 h, 10 µM listing for selected molecules.
procedure-text: in vitro
experimental-context: human, hela cells, % viability
test-readout: viability at 28.5 h, 10 µM (%)

INSERT INTO measurements (molecule, value) VALUES
  ('COCCNC(=O)c1cnc(-c2ccccc2)c(-c2cccnc2)c1 [CBK037515]', 106),
  ('CCOC(=O)c1ccccc1NC(=O)N(Cc1ccc2ccccc2c1)CC1CCNCC1 [CBK049769]', 98.3),
  ('O=C(O)c1ccc(NS(=O)(=O)c2ccccc2)cc1O [CBK023181]', 96.1),
  ('CSc1nccc(OCCOc2nccnc2N2CCNCC2)n1 [CBK000718G]', 104),
  ('O=C1COc2ccccc2C/C=C/CC2(CCCNC2)CN1 (centres unmarked) [CBK292029]', 91.5),
  ('COC(=O)c1ccc(NC(=O)CSc2nnc(-c3ccc(C)cc3)n2N)cc1 [CBK266114]', 89.9),
  ('CCc1c(C)nc2ccccc2c1[S+]([O-])CCC(=O)OC (centres unmarked) [CBK155467T]', 91.8),
  ('O=C(Cc1ccc(F)cc1Cl)N1CCn2c(nnc2C2CC2)C1 [CBK283773]', 87.8),
  ('c1ccc(N2CCN(c3cncc(-c4cccs4)n3)CC2)nc1 [CBK065502]', 102),
  ('COCc1cccc(-c2ncc(OCCN3CCCC3=O)nc2NC(C)=O)c1 [CBK145239]', 94.8),
  ('Cc1cc(C)n(C(CC(=O)c2ccccc2)C(=O)O)n1 (centres unmarked) [CBK287209]', 90.8),
  ('CN(Cc1ccccc1)Cc1c(C2CCNCC2)[nH]c2ncccc12 [CBK285083]', 96),
  ('COc1ccc(Oc2coc3c(CN(C)C)c(O)ccc3c2=O)cc1 [CBK263653]', 95.7),
  ('COc1cc(C(=O)Nc2nc3c(C)cccc3s2)cc(OC)c1OC [CBK287302]', 98.5),
  ('CC(=O)N1CCC2(C/C=C/C[C@H]3CN(C(=O)CCC4CCCC4)CC[C@H]3NC(=O)CNC2=O)CC1 [CBK292111]', 87),
  ('O=C(O)CCCn1cc(NC(=O)CCc2ccccc2)cn1 [CBK287055]', 86.4),
  ('Cc1cc(CNC(=O)N2CCCC(CO)C2)no1 (centres unmarked) [CBK156028]', 94.5),
  ('CC(C)C(NC(=O)C1CCC(C(C)(C)C)CC1)C(=O)O (centres unmarked) [CBK286610]', 95.5),
  ('O=C(C1CCC1)N1CC(n2nc(-c3ccccc3)ccc2=O)C1 [CBK284624]', 79.2),
  ('CN(C)c1nc(-c2cc(C(F)(F)F)cc(C(F)(F)F)c2)ccc1C(=O)NCc1ccco1 [CBK106094]', 89.5);
